measurement_target: human P450 11A1 (Homo sapiens, UniProt P05108)
Sequence (P05108 41-521 limits assumed): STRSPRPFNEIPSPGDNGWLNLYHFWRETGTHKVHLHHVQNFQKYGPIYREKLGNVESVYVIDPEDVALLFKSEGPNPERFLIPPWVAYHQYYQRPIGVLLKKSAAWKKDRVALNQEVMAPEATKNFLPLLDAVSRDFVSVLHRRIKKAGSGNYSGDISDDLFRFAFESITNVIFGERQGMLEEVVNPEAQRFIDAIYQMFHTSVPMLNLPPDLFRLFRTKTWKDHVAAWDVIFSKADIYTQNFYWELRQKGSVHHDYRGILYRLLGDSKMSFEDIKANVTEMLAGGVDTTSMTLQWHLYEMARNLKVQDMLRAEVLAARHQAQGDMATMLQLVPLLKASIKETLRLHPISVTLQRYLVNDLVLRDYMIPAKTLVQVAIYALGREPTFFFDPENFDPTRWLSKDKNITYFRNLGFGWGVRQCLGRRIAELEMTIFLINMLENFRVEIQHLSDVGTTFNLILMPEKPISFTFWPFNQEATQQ
Sequence (P00257 59-186 partner): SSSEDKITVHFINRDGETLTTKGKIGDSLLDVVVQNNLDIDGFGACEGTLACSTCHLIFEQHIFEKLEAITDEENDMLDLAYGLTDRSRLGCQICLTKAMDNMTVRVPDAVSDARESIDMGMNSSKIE
assay_explanation: Single-turnover kinetics of P450 11A1 with [1,2-3H]-cholesterol (radio-HPLC)
Type: biochemical
Design: M A S T R S P R P F N E I P S P G D N; Met-Ala (N-terminal start residues in place of the transit peptide and Ile40) (N); made in house; host or cells: E. coli (P450 11A1 in C41(DE3); Adx and AdR in E. coli)
condition_set: 10-fold excess (high) Adx, time 10 s
endpoint: concentration in single-turnover reaction

# compound, measurement_target, experimental_result
records = [
    ("CC(C)CCC[C@@H](C)[C@H]1CC[C@H]2[C@@H]3CC=C4C[C@@H](O)CC[C@]4(C)[C@H]3CC[C@]12C", "human P450 11A1 (Homo sapiens, UniProt P05108)", "1.814 µM"),
    ("CC(C)CC[C@@H](O)[C@@H](C)[C@H]1CC[C@H]2[C@@H]3CC=C4C[C@@H](O)CC[C@]4(C)[C@H]3CC[C@]12C [22R-OH Chol, 22R-hydroxycholesterol]", "human P450 11A1 (Homo sapiens, UniProt P05108)", "0.1591 µM"),
    ("CC(=O)[C@H]1CC[C@H]2[C@@H]3CC=C4C[C@@H](O)CC[C@]4(C)[C@H]3CC[C@]12C", "human P450 11A1 (Homo sapiens, UniProt P05108)", "2.345 µM"),
]

Below: the item to evaluate.
Lab book: concentration in single-turnover reaction of CC(C)CC[C@@H](O)[C@](C)(O)[C@H]1CC[C@H]2[C@@H]3CC=C4C[C@@H](O)CC[C@]4(C)[C@H]3CC[C@]12C [20R,22R-(OH)2 Chol, (20R,22R)-Cholest-5-ene-3β,20,22-triol] noted as 0.1817 µM

---

This section presents compounds with their documented concentration in single-turnover reaction values.
measurement_target: human P450 11A1 (Homo sapiens)
assay_explanation: Single-turnover kinetics of P450 11A1 with [1,2-3H]-cholesterol (radio-HPLC)
Format: biochemical
Design: M A S T R S P R P F N E I P S P G D N; Met-Ala (N-terminal start residues in place of the transit peptide and Ile40) (N); made in house; host or cells: E. coli (P450 11A1 in C41(DE3); Adx and AdR in E. coli)
condition_set: second table, headed 10-fold excess (high) Adx, time 50 s
Note: unit µM is implicit; provide only the numeric part.

Sample records with concentration in single-turnover reaction:
# compound, measurement_target, unit_name, experimental_result
measured = [
    ("CC(C)CCC[C@@H](C)[C@H]1CC[C@H]2[C@@H]3CC=C4C[C@@H](O)CC[C@]4(C)[C@H]3CC[C@]12C", "human P450 11A1 (Homo sapiens)", "µM", 0.7284),
    ("CC(C)CC[C@@H](O)[C@](C)(O)[C@H]1CC[C@H]2[C@@H]3CC=C4C[C@@H](O)CC[C@]4(C)[C@H]3CC[C@]12C [20R,22R-(OH)2 Chol, (20R,22R)-Cholest-5-ene-3β,20,22-triol]", "human P450 11A1 (Homo sapiens)", "µM", 0.07194),
    ("CC(C)CC[C@@H](O)[C@@H](C)[C@H]1CC[C@H]2[C@@H]3CC=C4C[C@@H](O)CC[C@]4(C)[C@H]3CC[C@]12C [22R-OH Chol, 22R-hydroxycholesterol]", "human P450 11A1 (Homo sapiens)", "µM", 0.1172),
]

Below: the item to evaluate.
Lab book: concentration in single-turnover reaction of "CC(=O)[C@H]1CC[C@H]2[C@@H]3CC=C4C[C@@H](O)CC[C@]4(C)[C@H]3CC[C@]12C" noted as 3.582

Each recorded value in this set is attributed to paper PMC10716780.
